meta.source: patent US20260242478A1

target.under.test: T1, Anti-CD28 Fab (SEQ ID NOs: 696, 697)
T1 construct: Biotinylated and captured on neutravidin coated plates in the phage ELISA
assay.explanation: phage ELISA on anti-CD28 Fab plates; competitor CD28 antigen pre-incubated in the wells
reported.endpoint: Phage binding ELISA, Anti-CD28 Fab signal in the presence of CD28

| binder | test.result |
| --- | --- |
| YCDGHTLEYMWKCL [Phage-547] | 0.13 |
| YCEGHSEEYISKCL [Phage-551] | 0.08 |
| YCAGHSPEHMWKCL [Phage-550] | 0.06 |
| YCDGHAPEYMAKCL [Phage-549] | 0.09 |
